These entries and their values trace back to the supplement of paper PMC9170038.

tested on: MS2 coat protein; assay: apparent KD of MS2 coat protein; higher = weaker reporter binding; details: Eterna round: R107; input ligand: none
Recorded apparent KD of MS2 coat protein values for a group of sequences are listed next.
outcome.measure: apparent KD of MS2 coat protein (nM)

>>> assay_result("ACAUACAUGAGGAUCACCCAUGUCCAUGUUCGAGGACCGGUACGGCCGCCACUCGCGCGACAGCAUGAGGAACUUGAGGAUCACA [Exclusion Tryptophan A]")
63.8
>>> assay_result("CCCAGUCAUAGCAGGGCAAAUAUACUCGAAGGAGCGUCAUAGUAGGCAGGUAGGUCGCGAGACAUGAGGAUCACCCAUGUAGAGA [cccmullin]")
52.3
>>> assay_result("AAUACCGGUCCUCGAAGCAUGGGUGAUCAACGAGGACCGGUACGGCCGCCACUCGAUAACAUGAGGAUCACCCAUGUAAUAAUAA [|T'-M'-Trp-Ms2|_Design5]")
313
>>> assay_result("UUGUUGUUUGGAAGGAGCGUGGAUGAGUGAGAACAUGAGGAUCACCCAUGUUGUAUGAUACCGCAGGUAGGUCGCCGGGUGGUGG [11.aB]")
18.1
